Listed next: entries and their corresponding concentration at maximum MFI.
system.tested: T1, human GITR at the cell surface (human, UniProt Q9Y5U5 26-241)
T1 construct: whole, on cells; The cell type is named in the assay field of each row; also called human GITR+ cells; CHO-K1 human GITR+ cells
T1 sequence (looked up): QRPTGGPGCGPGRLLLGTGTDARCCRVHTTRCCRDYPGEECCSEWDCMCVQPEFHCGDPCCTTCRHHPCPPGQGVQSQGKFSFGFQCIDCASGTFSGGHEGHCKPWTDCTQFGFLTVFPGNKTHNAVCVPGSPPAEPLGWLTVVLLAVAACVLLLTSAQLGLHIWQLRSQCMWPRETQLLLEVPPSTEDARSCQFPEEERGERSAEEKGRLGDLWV
test.summary: flow cytometry, human GITR-transfected murine blastoma cells, 10,000-13.7 ng/ml

VH1/VL1 IgG1 (antibody, V domains shown, Full-length human IgG1; also called hVH1/VL1; G-VH1/VL1) VH: QVTLRESGPALVKPTQTLTLTCTFSGFSLSTSGMGVGWIRQPPGKALEWLAHIWWDDDKYYNPSLKSRLTISKDTSKNQVVLTMTNMDPVDTATYYCARTRRYFPFAYWGQGTLVTVSS VL: EIVMTQSPATLSVSPGERATLSCKASQNVGTNVAWYQQKPGQAPRLLIYSASYRYSGIPARFSGSGSGTEFTLTISSLQSEDFAVYYCQQYNTDPLTFGGGTKVEIK: ~1110 ng/mL
VH3/VL2 IgG1 (antibody, V domains shown, Human IgG1; template of the mutagenesis library; also called G-VH3/VL2; VH3 family) VH: EVQLVESGGGLVQPGGSLRLSCAASGFSLSTSGMGVGWVRQAPGKGLEWLAHIWWDDDKYYVDSVKGRFTISRDNAKNSLYLQMNSLRAEDTAVYYCARTRRYFPFAYWGQGTLVTVSS VL: EIVLTQSPATLSLSPGERATLSCRASQNVGTNVAWYQQKPGQAPRLLIYSASYRYSGIPARFSGSGSGTDFTLTISSLEPEDFAVYYCQQYNTDPLTFGGGTKVEIK: ~1110 ng/mL

Consider now this further binder.
// query Returns the measured concentration at maximum MFI for the input binder. Input: D-A6 IgG1 (antibody, V domains shown, Human IgG1) VH: EVQLVESGGGLVQPGGSLRLSCAASGFSLSTSGYGVGWVRQAPGKGLEWLAHIWWDDDKYYVDSVKGRFTISRDNAKNSLYLQMNSLRAEDTAVYYCARTRQYFPFAYWGQGTLVTVSS VL: EIVLTQSPATLSLSPGERATLSCRASQSVGSNLAWYQQKPGQAPRLLIYSASYRYTGIPARFSGSGSGTDFTLTISSLEPEDFAVYYCQQYSTDPLTFGGGTKVEIK
// result ~1110 ng/mL
